- System: A549 NSCLC
- Measurement Description: NCI tumour cell line growth inhibition, 48 h
TGI values by entry
Metric: TGI

compound=COC(=O)/C=C/c1ccc(OP(=O)(O)O)c(OC)c1 reported_measurement="> 100 µM"
compound=COC1(OC)CCc2c(sc3ncnc(Nc4cccc(Br)c4)c23)C1 reported_measurement="> 100 µM"
compound=COc1cc(/C=C/c2cc(/C=C/c3ccc(O)c(OC)c3)n(C(=O)c3ccccc3Br)n2)ccc1O reported_measurement="45.3 µM"
compound="NC1=NC2(COC(c3ccccc3)(c3ccccc3)c3ccccc3)OC(COC(c3ccccc3)(c3ccccc3)c3ccccc3)C(O)C2O1 (stereo unspecified)" reported_measurement="> 100 µM"
compound=O=c1cc(Nc2cccc(O)c2)[nH]c(=O)[nH]1 reported_measurement="> 100 µM"
compound=Cc1ccc(NC(=O)c2cc(S(=O)(=O)Nc3nnc(-c4ccccc4)c(-c4ccccc4)n3)c(SCc3ccccc3)cc2Cl)cc1 reported_measurement="34.3 µM"
compound="CCCCCCCCCCCCCCCCCCNc1ccn(C2OC(COP(=O)(O)OCC3OC(n4ccc(N)nc4=O)C(O)C3O)C(O)C2O)c(=O)n1 (stereo unspecified)" reported_measurement="> 100 µM"
compound=CCN1/C(=C/C#C/C(C)=C\c2sc3ccc(Cl)cc3[n+]2CC)Sc2ccc(Cl)cc21 reported_measurement="22 µM"
compound=CCOC(=O)C1S(=O)(=O)OCCOS1(=O)=O reported_measurement="> 100 µM"
compound=NS(=O)(=O)c1nnc(NC(=S)NC(=O)Nc2ccc(Cl)c(Cl)c2)s1 reported_measurement="> 100 µM"
compound="COC12C(COC(=O)NCCO)C3=C(C(=O)C(C)=C(N)C3=O)N1CC1NC12 (stereo unspecified)" reported_measurement="> 264 µM"
compound="CC(N)(CC(O)(C(F)(F)Cl)C(F)(F)Cl)C(=O)O (stereo unspecified)" reported_measurement="> 10 µM"
compound=COc1cc(OC)c(OC)cc1/C=C/c1nc2ccccc2s1 reported_measurement="> 100 µM"
compound=O=C(c1ccccc1)[C@H]1Nc2ccc(Cl)cc2[C@H]2CCC[C@@H]12 reported_measurement="> 100 µM"
compound=O=C(Nn1c(-c2ccccc2)nc2ccccc2c1=O)c1ccc(Cl)cc1 reported_measurement="> 100 µM"
compound="Fc1ccc(NC(c2ccc(F)cc2)C2CCN(CCCCc3ccccc3)CC2)cc1 (stereo unspecified)" reported_measurement="3.73 µM"
compound=COc1ccc(CCCCNCc2cccc(CNCCCCc3ccc(OC)cc3)c2)cc1 reported_measurement="4.86 µM"
compound=O=C1CC(c2ccc(Cl)cc2)=Nc2ccccc2N1 reported_measurement="> 100 µM"
compound=COCCN(Cc1ccc(F)cc1)c1ccc(CO)c(Cl)c1 reported_measurement="> 79.5 µM"
compound="CSCCC(C(=O)O)N(C)C (stereo unspecified)" reported_measurement="> 100 µM"
compound=COCCN(CCOC)c1nc(-c2ccccc2)nc2ccccc12 reported_measurement="> 100 µM"

###

TGI values by entry
- System: RPMI-8226 leukemia
- Measurement Description: NCI tumour cell line growth inhibition, 48 h
Where a SMILES comes first, the peptide text is derived from it. [ ]: non-standard residue; d: D form. The star is where a group is joined. ξ: configuration not given here. ξF = NC(Cc1ccccc1)C(=O)O; Cbz = O=C(OCc1ccccc1)*
Metric: TGI

compound="O=C1CC(O)c2cscc21 (stereo not drawn)" reported_measurement="> 100 µM"
compound="O=C(NCCC1CNc2ccccc21)OCc1ccccc1 (stereo not drawn)" reported_measurement="> 100 µM"
compound=CN(C)c1ccc(-c2cc(-c3ccc(Nc4nc(Nc5ccc(Cl)cc5)nc(Nc5ccc(Cl)cc5)n4)cc3)nc(N)c2C#N)cc1 reported_measurement="53.8 µM"
compound=O=[N+]([O-])c1cccc2nc3ccccc3c(NCCCCCNc3c4ccccc4nc4cccc([N+](=O)[O-])c34)c12 reported_measurement="0.637 µM"
compound=CCOc1cnc(C(O)(c2ccccc2)c2ccccc2)o1 reported_measurement="> 100 µM"
compound="CCOC(=O)CNC(=O)C(Cc1ccccc1)NC(=O)OCc1ccccc1 (stereo not drawn) (Cbz-[ξF]-Gly-OEt)" reported_measurement="> 100 µM"
compound=CCOC(=O)/C(=C/c1ccccn1)C(=O)c1ccccc1 reported_measurement="13.2 µM"
compound="N#CC1CC(c2ccccc2)Nc2cc(Cl)ccc2N1 (stereo not drawn)" reported_measurement="> 100 µM"

###

TGI values by entry
- Test system: SK-OV-3 ovarian
- Measurement Description: NCI tumour cell line growth inhibition, 48 h
Metric: TGI

compound="O=C1CC(O)c2cscc21 (centres undefined)" reported_measurement="> 100 µM"
compound="COc1cc(/C=C2\\NC(=O)C(Cc3cc(OC)c(OC)c(C)c3OC)N(C(C)=O)C2=O)c(OC)c(C)c1OC (centres undefined)" reported_measurement="> 100 µM"
compound=O=C(c1ccc(Cl)cc1)N(C(=O)N1CCCCC1)c1ccccc1 reported_measurement="> 100 µM"
compound=NNc1nnc(CCCCCCCCc2nnc(NN)n2N)n1N reported_measurement="> 100 µM"
compound="CC(C)Cc1ccc(C(C)/C=C2\\CCC(CN(C)C)C2=O)cc1 (centres undefined)" reported_measurement="36.5 µM"
compound=Cc1cc(C)c(-c2no/c(=N\S(=O)(=O)c3ccc(Cl)cc3)o2)c(C)c1 reported_measurement="> 100 µM"
compound=O=C(CCc1cc(O)cc(O)c1)NCCc1cc(O)cc(OCc2ccccc2)c1 reported_measurement="> 100 µM"
compound=Cc1nc2c(sc3nc4c(cc32)CCC4)c(=O)o1 reported_measurement="> 100 µM"
compound="Cc1cnc(C(=O)NNc2nc3sc4c(c3c(=O)[nH]2)C(C)CCC4)cn1 (centres undefined)" reported_measurement="11.1 µM"
compound=N#Cc1sc2nc3ccccc3n2c1N reported_measurement="> 100 µM"
compound="N#CC1CC(c2ccccc2)Nc2cc(Cl)ccc2N1 (centres undefined)" reported_measurement="> 100 µM"
compound=CN(NC1=NCCO1)c1ccc2ccccc2c1 reported_measurement="> 100 µM"
compound=CCO/C=C1\SC(=S)N(c2ccc(OCC)cc2)C1=O reported_measurement="> 100 µM"
compound="NC(N)=NCCCC(NCc1c2ccccc2nc2ccccc12)C(=O)O (centres undefined)" reported_measurement="> 100 µM"
compound=O=C(Nn1c(-c2ccccc2)nc2ccccc2c1=O)c1ccc(Cl)cc1 reported_measurement="> 100 µM"
compound=CCN(CC)CCNc1ccc([N+](=O)[O-])c2nc3ccc(OC)cc3c(NCCN(CC)CC)c12 reported_measurement="> 10 µM"
compound="O=NN(CCCl)C(=O)NC1CCC(CC(=O)O)CC1 (centres undefined)" reported_measurement="> 100 µM"
compound=Cn1c(=O)c2nc3sc4c(n3c2n(C)c1=O)C(=O)c1ccccc1C4=O reported_measurement="> 60.9 µM"
compound=COc1ccc2c(C(=O)O)cc3ccccc3c2c1OC reported_measurement="> 100 µM"
compound=Cc1cc(O)c(/C=N/C(N)=S)c(=O)o1 reported_measurement="> 100 µM"
compound=COc1cc(C(=O)/C=C/c2cccc(Nc3ccnc4cc(Cl)ccc34)c2)cc(OC)c1OC reported_measurement="4.51 µM"
compound="Nc1nc(=S)c2ncn(C3OC(COP(=O)(O)O)C(O)C3O)c2[nH]1 (centres undefined)" reported_measurement="5.09 µM"
compound=CCOC(=O)c1c(NC(=O)c2ccccc2)c(C#N)c2n1CCCCC2 reported_measurement="> 100 µM"
compound=O=C(O)CCCc1ccc2c(c1)CC1(C2)Cc2cc3c(cc2C1)CCCC3 reported_measurement="52.9 µM"

###

TGI values by entry
- Test system: 786-0 renal
- Measurement Description: NCI tumour cell line growth inhibition, 48 h
Where a SMILES comes first, the peptide text is derived from it. Bridges are numbered along the chain shown (N, C = ends). [ ]: non-standard residue; d: D form. aThr = C[C@H](O)[C@H](N)C(=O)O
Metric: TGI

molecule=C1CCC(N=C2N(C3CCCCC3)C(=NC3CCCCC3)N2C2CCCCC2)CC1 metric=TGI reported_measurement="> 100 µM"
molecule=Nc1nc(=S)c2c(ncn2CCO)[nH]1 metric=TGI reported_measurement="> 100 µM"
molecule=O=[N+]([O-])c1ccc(/C=N/Nc2nc3ccccc3[nH]2)o1 metric=TGI reported_measurement="> 100 µM"
molecule="Cc1ccc(OCC2OC(n3cnc4c(Cl)nc(Nc5cc(Cl)cc(Cl)c5)nc43)CC2Oc2ccc(C)cc2)cc1 (stereo unspecified)" metric=TGI reported_measurement="> 100 µM"
molecule="CC(N)(CC(O)(C(F)(F)Cl)C(F)(F)Cl)C(=O)O (stereo unspecified)" metric=TGI reported_measurement="> 10 µM"
molecule="COc1cc(/C=C2\\NC(=O)C(Cc3cc(OC)c(OC)c(C)c3OC)N(C(C)=O)C2=O)c(OC)c(C)c1OC (stereo unspecified)" metric=TGI reported_measurement="> 100 µM"
molecule=O=S(=O)(/N=C(\NO)Nc1ccc(Cl)cc1)c1cc(C(F)(F)F)cc(C(F)(F)F)c1 metric=TGI reported_measurement="33.4 µM"
molecule=CN=c1sc2c(n1C)C(=O)c1ccccc1C2=O metric=TGI reported_measurement="20.7 µM"
molecule=CC(=O)Oc1c(C(=O)[O-])cc(C(C)C)cc1C(C)C.CC(=O)Oc1c(C(=O)[O-])cc(C(C)C)cc1C(C)C.CC(=O)Oc1c(C(=O)[O-])cc(C(C)C)cc1C(C)C.CC(=O)Oc1c(C(=O)[O-])cc(C(C)C)cc1C(C)C.[Cu+2].[Cu+2] metric=TGI reported_measurement="> 100 µM"
molecule=N#Cc1ccc(Sc2nc3ccccc3[nH]2)cc1 metric=TGI reported_measurement="> 100 µM"
molecule=COc1cc(/C=C/c2cc(/C=C/c3ccc(O)c(OC)c3)n(C(=O)c3ccccc3Br)n2)ccc1O metric=TGI reported_measurement="> 100 µM"
molecule="O=C1c2ccccc2N2OC3(N4CCOCC4)CCCC3C12c1ccccc1 (stereo unspecified)" metric=TGI reported_measurement="> 100 µM"
molecule=Clc1ccc(C=Nc2ccc(Oc3ccc(Cl)cc3)c(Cl)c2)cc1 metric=TGI reported_measurement="36.1 µM"
molecule=CSC(=O)/C=C1\SS/C(=C\C(=O)SC)S1 metric=TGI reported_measurement="4.03 µM"
molecule=COc1ccc(/C(Nc2ccccc2)=C(\CCl)c2ccccc2)cc1OC metric=TGI reported_measurement="> 100 µM"
molecule="CC(C)C[C@@H]1NC(=O)[C@@H]2CCCN2C(=O)[C@@H]2CCCN2C(=O)[C@H](CC(C)C)NC(=O)[C@H](CO)NC(=O)[C@H](CCCCN)NC(=O)[C@H]([C@H](C)O)NC(=O)[C@@H]2CSSC[C@@H](NC1=O)C(=O)N[C@@H](Cc1ccccc1)C(=O)N1CCC[C@H]1C(=O)N[C@@H](CC(=O)O)C(=O)NCC(=O)N[C@@H](CCCN=C(N)N)C(=O)N2 (cyclo(C[aThr]KSLPPL[dC]FPDGR); disulfide 1-9)" metric=TGI reported_measurement="> 50 µM"
